Data provenance: patent US20240150377A1

study_system: CFTR (Homo sapiens, UniProt P13569, DEL508-508)
Construct: endogenous in cells; host or cells: primary human bronchial epithelial cells from CF subjects (F508del/MF-HBE), differentiated at air-liquid interface
Sequence (P13569 with tags, fused parts or gaps DEL508-508): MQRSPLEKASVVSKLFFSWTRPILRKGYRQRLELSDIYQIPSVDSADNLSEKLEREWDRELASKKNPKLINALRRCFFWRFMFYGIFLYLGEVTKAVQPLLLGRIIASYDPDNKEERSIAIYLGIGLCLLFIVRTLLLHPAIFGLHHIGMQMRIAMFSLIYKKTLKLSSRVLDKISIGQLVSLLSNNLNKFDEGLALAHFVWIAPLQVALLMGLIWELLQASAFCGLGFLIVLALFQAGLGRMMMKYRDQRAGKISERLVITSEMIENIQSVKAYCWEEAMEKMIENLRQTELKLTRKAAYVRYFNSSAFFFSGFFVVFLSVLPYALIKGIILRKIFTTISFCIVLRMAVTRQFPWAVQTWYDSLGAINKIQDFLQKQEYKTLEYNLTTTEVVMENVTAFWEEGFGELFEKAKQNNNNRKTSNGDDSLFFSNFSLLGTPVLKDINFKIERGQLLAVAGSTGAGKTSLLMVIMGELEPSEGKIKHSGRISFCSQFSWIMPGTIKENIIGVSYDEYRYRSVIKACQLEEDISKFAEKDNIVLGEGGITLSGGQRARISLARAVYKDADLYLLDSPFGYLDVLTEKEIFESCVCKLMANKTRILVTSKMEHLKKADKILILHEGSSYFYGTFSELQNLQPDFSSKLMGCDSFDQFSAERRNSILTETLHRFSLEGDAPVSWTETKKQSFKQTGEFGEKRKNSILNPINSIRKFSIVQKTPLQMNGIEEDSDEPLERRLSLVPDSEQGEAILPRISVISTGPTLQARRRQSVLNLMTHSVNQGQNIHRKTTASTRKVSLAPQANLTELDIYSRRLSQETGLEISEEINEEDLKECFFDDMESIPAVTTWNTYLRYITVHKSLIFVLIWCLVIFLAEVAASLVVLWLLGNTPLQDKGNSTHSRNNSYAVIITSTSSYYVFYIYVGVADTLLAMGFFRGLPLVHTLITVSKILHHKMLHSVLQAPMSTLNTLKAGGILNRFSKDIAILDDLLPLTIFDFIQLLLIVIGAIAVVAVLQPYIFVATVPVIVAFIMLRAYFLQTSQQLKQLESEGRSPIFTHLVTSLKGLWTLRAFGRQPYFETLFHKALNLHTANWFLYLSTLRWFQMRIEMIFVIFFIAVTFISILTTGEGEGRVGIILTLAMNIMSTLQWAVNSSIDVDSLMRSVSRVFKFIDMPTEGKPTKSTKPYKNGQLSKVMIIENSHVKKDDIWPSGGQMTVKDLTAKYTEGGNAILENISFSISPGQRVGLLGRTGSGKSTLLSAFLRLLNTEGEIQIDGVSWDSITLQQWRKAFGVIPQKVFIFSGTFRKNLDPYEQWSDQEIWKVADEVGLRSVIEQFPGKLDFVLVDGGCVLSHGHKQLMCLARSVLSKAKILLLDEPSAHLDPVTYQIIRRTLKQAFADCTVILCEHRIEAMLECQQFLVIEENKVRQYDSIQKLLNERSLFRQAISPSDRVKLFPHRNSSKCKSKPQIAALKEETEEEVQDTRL
experiment_summary: HBE assay: Ussing chamber assay of CFTR-mediated short-circuit currents
Format: cell-based
measurement_setup: Table 12; read-out: HBE Max Activity (%)
property_name: Emax

Here are 5 molecules together with their reported answers.
Cc1cccc(C)c1-c1cc2nc(n1)NS(=O)(=O)c1cccc(c1)C(=O)N(Cc1ncc(N(C)C3CC4(CC4)C3)cn1)[C@H](CC(C)(C)C)CO2 [Compound 575] ... > 60%
Cc1cccc(C)c1-c1cc2nc(n1)NS(=O)(=O)c1cccc(c1)C(=O)N(Cc1ccc(C3CC(C)(C)CO3)cn1)[C@H](CC(C)(C)C)CO2 (stereo partly drawn) [Compound 156] ... > 60%
COC1(C)CN(c2cnc(CN3C(=O)c4cccc(c4)S(=O)(=O)Nc4nc(cc(-c5c(C)cccc5C)n4)OC[C@H]3CC(C)(C)C)nc2)C1 [Compound 585] ... > 60%
Cc1cccc(C)c1-c1cc2nc(n1)NS(=O)(=O)c1cccc(c1)C(=O)N(Cc1ncc(OC3CC4(CC4)C3)cn1)[C@H](CC(C)(C)C)CO2 [Compound 560] ... > 60%
Cc1cccc(C)c1-c1cc2nc(n1)NS(=O)(=O)c1cccc(c1)C(=O)N(CC(=O)N(C)CC1CCCCC1)[C@H](CC(C)(C)C)CO2 [Compound 231] ... > 60%

Now let's try a different one.
-- ask Find the measured Emax of Cc1cccc(C)c1-c1cc2nc(n1)NS(=O)(=O)c1cccc(c1)C(=O)N(Cc1cncc(N(C)CC(C)(C)C)n1)[C@H](C(C)C)CO2 [Compound 694] and report it.
-- reply > 60%
